Sourced from ChEMBL document CHEMBL1144887

Tested on: Amine oxidase [flavin-containing] B (Homo sapiens)
Sequence (P27338 whole entry): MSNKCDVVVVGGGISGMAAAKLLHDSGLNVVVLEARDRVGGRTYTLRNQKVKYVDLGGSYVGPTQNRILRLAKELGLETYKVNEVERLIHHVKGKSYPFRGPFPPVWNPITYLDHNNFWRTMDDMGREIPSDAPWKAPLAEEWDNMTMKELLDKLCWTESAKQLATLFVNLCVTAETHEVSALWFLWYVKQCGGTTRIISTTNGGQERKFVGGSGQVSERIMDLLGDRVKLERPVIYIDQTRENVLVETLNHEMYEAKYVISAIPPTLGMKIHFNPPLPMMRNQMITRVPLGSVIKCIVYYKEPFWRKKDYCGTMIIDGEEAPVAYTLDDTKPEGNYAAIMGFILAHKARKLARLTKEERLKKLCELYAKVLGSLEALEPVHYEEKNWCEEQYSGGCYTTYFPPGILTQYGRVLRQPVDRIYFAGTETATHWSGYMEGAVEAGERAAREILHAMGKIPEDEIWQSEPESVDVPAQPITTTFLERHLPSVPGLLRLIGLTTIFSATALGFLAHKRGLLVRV
Measured property: IC50 (nM)

• NC(=O)/C=C1\CCc2c(F)cc(F)cc21 = 200
